# assayed_system: recombinant human Lp-PLA2 (Homo sapiens)
# Sequence (Q13093 22-441): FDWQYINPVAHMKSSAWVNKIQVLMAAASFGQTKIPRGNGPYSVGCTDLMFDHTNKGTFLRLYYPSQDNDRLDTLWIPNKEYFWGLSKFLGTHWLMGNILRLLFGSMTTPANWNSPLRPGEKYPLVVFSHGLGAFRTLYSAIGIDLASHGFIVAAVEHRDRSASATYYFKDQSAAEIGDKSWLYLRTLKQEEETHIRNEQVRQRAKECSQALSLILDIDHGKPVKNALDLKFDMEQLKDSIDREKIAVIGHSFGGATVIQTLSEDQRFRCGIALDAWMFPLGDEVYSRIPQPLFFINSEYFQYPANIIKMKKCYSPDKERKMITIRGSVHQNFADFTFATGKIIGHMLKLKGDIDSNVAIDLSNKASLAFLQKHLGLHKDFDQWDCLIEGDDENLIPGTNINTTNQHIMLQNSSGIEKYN
# experiment_summary: Recombinant human Lp-PLA2 assay (rhLp-PLA2, PED6 assay)
# Format: biochemical
# experimental_setup: upper limit for pIC50 in this assay is 9.3; read-out: pIC50 values in the PED6 assay (converted)
Counter-ions that a name gives are not always drawn.
endpoint_name: IC50

Sample records with IC50:
| compound | IC50 |
| --- | --- |
| CN1CCCn2c1cc(OCc1cc(F)c(Oc3ccc(C(F)(F)F)cc3)c(F)c1)nc2=O | ≤ 10 nM |
| CN1CCCn2c1cc(OCc1ccc(F)c(F)c1)nc2=O [Example 10, trifluoroacetic acid salt] | ≤ 10 nM |
| N#Cc1ccc(Oc2ccc(COc3cc4n(c(=O)n3)CCCN4)cc2C#N)cc1F | ≤ 1 nM |

Please look at the following compound next.
Give the measured IC50 for CN1CCCn2c1cc(OCc1ccc(Oc3ccc(Cl)nc3)c(F)c1)nc2=O ≤ 1 nM

Just for reference, patent US20130030012A1 is where these values come from.
